SUBJECT OF TEST: endogenous CETP from serum (Homo sapiens (Human), UniProt P11597)
Sequence (P11597 18-493 limits assumed): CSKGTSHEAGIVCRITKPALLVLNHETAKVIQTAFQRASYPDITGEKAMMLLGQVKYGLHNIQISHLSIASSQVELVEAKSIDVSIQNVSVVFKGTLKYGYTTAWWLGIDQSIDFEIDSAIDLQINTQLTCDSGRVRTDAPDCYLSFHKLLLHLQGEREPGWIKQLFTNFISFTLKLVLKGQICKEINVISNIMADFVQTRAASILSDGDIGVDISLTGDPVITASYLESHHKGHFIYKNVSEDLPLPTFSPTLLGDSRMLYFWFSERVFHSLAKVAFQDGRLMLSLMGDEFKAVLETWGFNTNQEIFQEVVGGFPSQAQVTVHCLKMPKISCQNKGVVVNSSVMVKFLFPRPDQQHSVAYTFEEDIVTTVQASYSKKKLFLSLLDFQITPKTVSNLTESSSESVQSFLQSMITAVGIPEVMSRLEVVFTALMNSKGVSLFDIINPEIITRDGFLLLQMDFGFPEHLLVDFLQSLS
TEST PROTOCOL: RTA assay in 95% human serum (CETP-catalyzed CE and TG transfer, endogenous CETP)
Assay type: biochemical
TEST PARAMETERS: 95% human serum; read-out: RTA (95% HS)
RECORDED ENDPOINT: IC50 (nM)
Could you give me the number in nM? Just the number is fine.

Q) Read the entry COc1ccc(-c2ccc(C(=O)O)cc2C)cc1-c1cnc(N(C)C)nc1CN1C(=O)O[C@H](c2cc(C(F)(F)F)cc(C(F)(F)F)c2)C12CC2 [Example 9] and write its reported IC50.
A) 55.5

Q) Tell me its IC50 given COc1ccc([C@H]2C[C@H](C(=O)O)C2)cc1-c1ccc(C(F)(F)F)nc1CN1C(=O)O[C@H](c2cc(C(F)(F)F)cc(C(F)(F)F)c2)C12CC2 [Example 1] as the entry.
A) 962

Q) Output measured IC50 for this item: COc1ccc([C@H]2C[C@H](CO)C2)cc1-c1ccc(C(F)(F)F)nc1CN1C(=O)O[C@H](c2cc(C(F)(F)F)cc(C(F)(F)F)c2)C12CC2 [Example 6]
A) 1850

Q) Give the reported value of IC50 for this record: COC(=O)c1ccc(-c2ccc(OC)c(-c3cnc(SC)nc3CN3C(=O)O[C@H](c4cc(C(F)(F)F)cc(C(F)(F)F)c4)C34CCC4)c2)c(C)c1 [Example 17]
A) 913
